# Tested on: CEM cells HIV-1 protection, formazan growth assay
# measurement.notes: NCI AIDS Antiviral Assay
# test.parameters: measured here: growth of uninfected CEM cells
Below: a set of entries, each annotated with reported IC50.

Sample answers from the record:
INSERT INTO assay_data (compound, study_target, data_value) VALUES
  ('c1ccc2c(c1)Nc1nsnc1N2', 'CEM cells HIV-1 protection, formazan growth assay', '7.08 µM'),
  ('O=C1NC2c3c(I)sc(I)c3C(O)C2O1 (stereo not given)', 'CEM cells HIV-1 protection, formazan growth assay', '141 µM'),
  ('FC(F)(F)P1C2C=CC(CC2)C1(F)F (stereo not given)', 'CEM cells HIV-1 protection, formazan growth assay', '> 251 µM'),
  ('COC1/C=C/OC2(C)Oc3c(C)c(O)c4c(O)c(c(C5SCCS5)c(O)c4c3C2=O)NC(=O)/C(C)=C\C=C\C(C)C(O)C(C)C(O)C(C)C(O)C1C (stereo not given)', 'CEM cells HIV-1 protection, formazan growth assay', '1 µM'),
  ('OCCSCC/C(=N\N=C(/CCSCCO)c1ccccc1)c1ccccc1', 'CEM cells HIV-1 protection, formazan growth assay', '34.7 µM');

Ask | Identify the measured IC50 of "COC(=O)/C=C1/Nc2c(n(C)c(=O)n(C)c2=O)NC1=O" for CEM cells HIV-1 protection, formazan growth assay.
Reply | > 200 µM

Ask | Identify the measured IC50 of "NC(=O)c1cccc([C@@H]2O[C@H](CO)[C@@H](O)[C@H]2O)c1" for CEM cells HIV-1 protection, formazan growth assay.
Reply | 5.37 µM

Ask | Identify the measured IC50 of CC(=O)OCC1OC(n2c(-c3ccc(Cl)cc3)cc(-c3ccccc3)c(C#N)c2=S)C(OC(C)=O)C(OC(C)=O)C1OC(C)=O (stereo not given) for CEM cells HIV-1 protection, formazan growth assay.
Reply | 145 µM

Ask | Identify the measured IC50 of COC(=O)c1ccccc1CC(Cc1ccc2c(c1)CCC2)C(=O)OC (stereo not given) for CEM cells HIV-1 protection, formazan growth assay.
Reply | 56.2 µM

Ask | Identify the measured IC50 of "COC(=O)c1c(-c2ccccc2)c2sc3ccccc3n2c1N" for CEM cells HIV-1 protection, formazan growth assay.
Reply | > 200 µM
